Reference for the values: PubChem BioAssay (NCI)

# System: A549 NSCLC
# assayInfo: NCI tumour cell line growth inhibition, 48 h
metric: TGI

>>> reportedresult("COc1cccc(N2C(=O)CSC2c2cc(OC)c(OC)c(OC)c2)c1 (stereo not drawn)")
"> 100 µM"
>>> reportedresult("CC1=C(C(=O)Nc2ccc(Cl)c(Cl)c2)C(c2ccco2)C(C(=O)Nc2ccc(Cl)c(Cl)c2)=C(C)N1")
"28.1 µM"
>>> reportedresult("NS(=O)(=O)c1ccc(CCN=C=S)cc1")
"4.85 µM"

Entry CCCCCCCCCCCCCCCCCCOCC(CO[P+](=O)O)OCCCCCCCCCCCCCCCCCC (stereo not drawn) has what TGI?
> 50 µM

Same read-out for "O=c1oc2ccc3ccccc3c2cc1-c1nc2ccccc2o1" ?
> 55.2 µM

Same read-out for "Oc1ccc(Cn2c(-c3ccc(O)c(O)c3)nc3ccccc32)cc1O" ?
66.2 µM

Same read-out for "Cc1n[nH]c(=O)n1/N=C/c1c[nH]c2ccccc12" ?
> 100 µM

* * *

# System: SN12C renal
# assayInfo: NCI tumour cell line growth inhibition, 48 h
metric: TGI

Consider the worked cases shown below.
>>> reportedresult("Cc1n[nH]c(=O)n1/N=C/c1c[nH]c2ccccc12")
"> 100 µM"
>>> reportedresult("NC1=N/C(=C2/CCNC(=O)c3[nH]c(Br)cc32)C(=O)N1")
"> 100 µM"

Entry "c1ccc(/N=N/Nc2ccc(-c3nc4ccccc4[nH]3)cc2)nc1" has what TGI?
35.8 µM

Same read-out for "CCOC(=O)c1[nH]c2ccccc2c1C(=O)C[C@H](NC(=O)C(F)(F)F)C(=O)OC" ?
> 100 µM

Same read-out for "O=C(/C=C\c1ccc(Cl)cc1Cl)c1cccs1" ?
32.1 µM

Same read-out for "O=C(Nc1c(O)[nH]c(=S)[nH]c1=O)c1ccc2ccccc2n1" ?
> 100 µM

Same read-out for CCOC(=O)c1c(-c2ccc(OC)cc2)c(C#N)c(=S)n(C2OC(CO)C(O)C(O)C2O)c1-c1ccccc1 (stereo not given) ?
> 100 µM

Same read-out for "O=C(O)CC/C(=N\Nc1nsc2ccccc12)c1ccc(Cl)cc1" ?
57.7 µM

Same read-out for "CC(C)OP(=O)(OC(C)C)C(=Nc1ccccc1)NNc1ccc([N+](=O)[O-])cc1" ?
> 100 µM

Same read-out for Cc1ccc(C)c(NC(=O)CC/C(=N\NC(=O)C(N)=O)C(C)C(=O)c2ccc(O)cc2)c1 (stereo not given) ?
> 100 µM

* * *

# Test system: A549 NSCLC
# assayInfo: NCI tumour cell line growth inhibition, 48 h; in the data active means GI50 below about 0.43 µM; inactive means the rest
Just give me one of these, please: 1 for active, -1 for inactive

Consider the following illustrative entries.
>>> categorylabel("Cc1nc(NC(=O)CCCN2C(=O)c3cccc4cccc(c34)C2=O)sc1C(=O)Nc1cc(C(=O)NCCCN(C)C)n(C)c1")
-1
>>> categorylabel("NS(=O)(=O)c1ccc(N2N=C3c4ccccc4CC3C2c2ccc(Cl)cc2)cc1 (stereo unspecified)")
-1
>>> categorylabel("COc1cc(-n2cc(-c3ccc(Cl)cc3)[nH]c2=O)cc(OC)c1OC")
-1
>>> categorylabel("NS(=O)(=O)c1ccc(CCN=C=S)cc1")
-1
>>> categorylabel("N.N.NCCCCN.O=C([O-])C1(C(=O)[O-])CCC1.O=C([O-])C1(C(=O)[O-])CCC1.[Pt+4].[Pt+4]")
-1
>>> categorylabel("COc1ccc2c(c1)CCC1C2CC[C@]2(C)/C(=N/OC(=O)Cc3ccccc3)CCC12 (stereo partly specified)")
-1

Recorded test outcome, item "COc1cc2c3c(n(CCCNCCCNCCCn4c5c(c6ccccc6c4=O)C(=O)c4ccccc4-5)c(=O)c2cc1OC)-c1cc2c(cc1C3=O)OCO2"
1
